Experiment: AUC (0 to 24 hrs) in C57BL/6N mouse at 34 micromol/kg, po measured upto 24 hrs by LC-MS/MS analysis
Type: ADME, organism-based
Design: time < 24 hr, route oral
Settings: in vivo, 34 µmol/kg
Observable: AUC(0-t) at 24 h (nM·h)
Quick reminder: number only, in nM·h, skip the unit.

Kindly note the recorded AUC(0-t) at 24 h for "CS(=O)(=O)CCNCc1ccc(-c2nc3c(Nc4ccc(OCc5cccc(F)c5)c(Cl)c4)ncnc3[nH]2)o1" , which is 870

Kindly note the recorded AUC(0-t) at 24 h for "CS(=O)(=O)CCNCc1ccc(-c2ccc3ncnc(Nc4ccc(OCc5cccc(F)c5)c(Cl)c4)c3c2)o1" , which is 6700

Kindly note the recorded AUC(0-t) at 24 h for "Fc1cccc(COc2ccc(Nc3ccnc4[nH]c(-c5ccco5)nc34)cc2Cl)c1" , which is 2100

* * *

I'd appreciate it if you could supply inhibition values for the items below.
Target: Receptor tyrosine-protein kinase erbB-2 (Homo sapiens) (UniProt P04626)
Sequence (P04626 whole entry, the tested form may be a part): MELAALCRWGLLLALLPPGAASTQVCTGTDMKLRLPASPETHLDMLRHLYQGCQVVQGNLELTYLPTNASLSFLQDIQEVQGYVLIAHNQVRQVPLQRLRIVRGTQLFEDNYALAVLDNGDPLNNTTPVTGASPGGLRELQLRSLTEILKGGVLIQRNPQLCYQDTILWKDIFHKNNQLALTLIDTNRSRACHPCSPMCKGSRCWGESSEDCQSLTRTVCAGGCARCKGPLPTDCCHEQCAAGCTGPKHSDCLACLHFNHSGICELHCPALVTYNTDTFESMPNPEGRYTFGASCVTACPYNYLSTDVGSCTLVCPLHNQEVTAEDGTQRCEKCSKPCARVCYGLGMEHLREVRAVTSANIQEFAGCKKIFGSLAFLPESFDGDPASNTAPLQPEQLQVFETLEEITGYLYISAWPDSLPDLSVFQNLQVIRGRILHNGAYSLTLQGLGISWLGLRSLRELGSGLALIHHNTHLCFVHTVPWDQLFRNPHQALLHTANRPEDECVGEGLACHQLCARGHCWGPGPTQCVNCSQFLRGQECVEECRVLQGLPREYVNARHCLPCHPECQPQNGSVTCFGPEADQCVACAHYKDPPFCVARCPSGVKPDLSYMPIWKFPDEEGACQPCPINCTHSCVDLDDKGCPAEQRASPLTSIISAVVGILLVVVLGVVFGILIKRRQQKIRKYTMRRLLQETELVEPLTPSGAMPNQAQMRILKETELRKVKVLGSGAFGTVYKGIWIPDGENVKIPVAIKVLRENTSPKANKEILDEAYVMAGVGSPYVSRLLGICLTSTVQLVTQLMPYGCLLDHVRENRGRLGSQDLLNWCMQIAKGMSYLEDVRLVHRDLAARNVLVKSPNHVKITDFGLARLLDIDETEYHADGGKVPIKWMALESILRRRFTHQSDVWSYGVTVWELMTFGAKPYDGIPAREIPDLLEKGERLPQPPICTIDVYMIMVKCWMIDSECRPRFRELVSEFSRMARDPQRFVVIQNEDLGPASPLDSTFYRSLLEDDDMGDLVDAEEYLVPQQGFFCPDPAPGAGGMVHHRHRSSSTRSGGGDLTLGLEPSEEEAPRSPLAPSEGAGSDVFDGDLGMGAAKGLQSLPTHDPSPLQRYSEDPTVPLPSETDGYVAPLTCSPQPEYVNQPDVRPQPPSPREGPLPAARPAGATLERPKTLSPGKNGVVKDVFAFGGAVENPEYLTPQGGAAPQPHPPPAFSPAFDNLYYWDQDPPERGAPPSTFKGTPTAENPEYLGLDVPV
Assay: Inhibition of human recombinant GST-tagged HER2 (catalytic domain 676 to end residues) autophosphorylation expressed in baculovirus infected Sf9 cells using poly( Glu, Tyr) 4:1 as substrate at 10 uM incubated for 60 mins by ELISA relative to control
Quick reminder: number only, in %, skip the unit.

Kindly note the recorded inhibition for "Fc1cccc(COc2ccc(Nc3ncc(F)c4[nH]c(-c5ccco5)nc34)cc2Cl)c1" , which is 79

Kindly note the recorded inhibition for "CS(=O)(=O)CCNCc1ccc(-c2nc3c(Nc4ccc(OCc5cccc(F)c5)c(Cl)c4)ncc(F)c3[nH]2)o1" , which is 13

Kindly note the recorded inhibition for "CS(=O)(=O)CCNCc1ccc(-c2nc3c(Nc4ccc(OCc5cccc(F)c5)c(Cl)c4)ccnc3[nH]2)o1" , which is 46

Kindly note the recorded inhibition for "Fc1cccc(COc2ccc(Nc3nccc4[nH]c(-c5ccco5)nc34)cc2Cl)c1" , which is 86

Kindly note the recorded inhibition for "CS(=O)(=O)CCNCc1ccc(-c2nc3c(Nc4ccc(OCc5cccc(F)c5)c(Cl)c4)nccc3[nH]2)o1" , which is 34

Kindly note the recorded inhibition for "CS(=O)(=O)CCNCc1ccc(-c2ccc3ncnc(Nc4ccc(OCc5cccc(F)c5)c(Cl)c4)c3c2)o1" , which is 97

Kindly note the recorded inhibition for "Fc1cccc(COc2ccc(Nc3ncnc4[nH]c(-c5ccco5)nc34)cc2Cl)c1" , which is 86

Kindly note the recorded inhibition for "CS(=O)(=O)CCNCc1ccc(-c2nc3c(Nc4ccc(OCc5cccc(F)c5)c(Cl)c4)ncnc3[nH]2)o1" , which is 32

Kindly note the recorded inhibition for "Fc1cccc(COc2ccc(Nc3ccnc4[nH]c(-c5ccco5)nc34)cc2Cl)c1" , which is 58

* * *

Experiment: Tmax in C57BL/6N mouse at 34 micromol/kg, po measured upto 24 hrs by LC-MS/MS analysis
Format: ADME, organism-based
Conditions: in vivo, 34 µmol/kg
I'd appreciate it if you could supply Tmax values for the items below.
Quick reminder: number only, in h, skip the unit.

Kindly note the recorded Tmax for "CS(=O)(=O)CCNCc1ccc(-c2nc3c(Nc4ccc(OCc5cccc(F)c5)c(Cl)c4)ncnc3[nH]2)o1" , which is 2

Kindly note the recorded Tmax for "Fc1cccc(COc2ccc(Nc3ccnc4[nH]c(-c5ccco5)nc34)cc2Cl)c1" , which is 2

Kindly note the recorded Tmax for "CS(=O)(=O)CCNCc1ccc(-c2ccc3ncnc(Nc4ccc(OCc5cccc(F)c5)c(Cl)c4)c3c2)o1" , which is 2

* * *

Molecular target: Receptor tyrosine-protein kinase erbB-2 (Homo sapiens) (UniProt P04626)
Experiment: Inhibition of human recombinant GST-tagged HER2 (catalytic domain 676 to end residues) autophosphorylation expressed in baculovirus infected Sf9 cells using poly( Glu, Tyr) 4:1 as substrate at 1 uM incubated for 60 mins by ELISA relative to control
Observable: inhibition (%)
Quick reminder: number only, in %, skip the unit.

Kindly note the recorded inhibition for "CS(=O)(=O)CCNCc1ccc(-c2nc3c(Nc4ccc(OCc5cccc(F)c5)c(Cl)c4)ccnc3[nH]2)o1" , which is 33

Kindly note the recorded inhibition for "CS(=O)(=O)CCNCc1ccc(-c2nc3c(Nc4ccc(OCc5cccc(F)c5)c(Cl)c4)ncnc3[nH]2)o1" , which is 28

Kindly note the recorded inhibition for "Fc1cccc(COc2ccc(Nc3ncc(F)c4[nH]c(-c5ccco5)nc34)cc2Cl)c1" , which is 10

Kindly note the recorded inhibition for "CS(=O)(=O)CCNCc1ccc(-c2nc3c(Nc4ccc(OCc5cccc(F)c5)c(Cl)c4)nccc3[nH]2)o1" , which is 25
